Tested on: A2780 ovarian carcinoma cells
Assay: Antiproliferative MTT assay, 72 h
Type: cell-based, human
Details: A2780, 72 h treatment
quantity: IC50

Item: N.N.[Cl][Pt][Cl] [cisplatin] | IC50: 1180 nM
